procedureDetails: Solubility of the compound in pH 7.4 PBS buffer by ultraviolet spectroscopic method
Format: physicochemical
Listing of entries alongside the reported solubility.
measuredEndpoint: solubility (mg/mL)

- structureSmilesString: "COCCOCCOCCOCCOCCOCCOCCOCOc1c(C(C)C)cccc1C(C)C"
  measurementUnits: "mg/mL"
  qualifyingSign: "="
  measurement: 55.4
- structureSmilesString: "COCCOCCOCCOCC(=O)Oc1c(C(C)C)cccc1C(C)C"
  measurementUnits: "mg/mL"
  qualifyingSign: "="
  measurement: 0.99
- structureSmilesString: "COCCOCCOCCOCCOC(=O)Oc1c(C(C)C)cccc1C(C)C"
  measurementUnits: "mg/mL"
  qualifyingSign: "="
  measurement: 0.38
- structureSmilesString: "COCCOCCOCCOCCOCC(=O)Oc1c(C(C)C)cccc1C(C)C"
  measurementUnits: "mg/mL"
  qualifyingSign: "="
  measurement: 1.58
- structureSmilesString: "COCCOCCOCCOCCOCCOCCOCCOCCOCCOCCOCOc1c(C(C)C)cccc1C(C)C"
  measurementUnits: "mg/mL"
  qualifyingSign: ">"
  measurement: 289
- structureSmilesString: "COCCOCCOCCOCCOCCOCCOCCOCC(=O)Oc1c(C(C)C)cccc1C(C)C"
  measurementUnits: "mg/mL"
  qualifyingSign: ">"
  measurement: 216
- structureSmilesString: "COCCOCCOCCOCCOCCOCCOCCOC(=O)Oc1c(C(C)C)cccc1C(C)C"
  measurementUnits: "mg/mL"
  qualifyingSign: "="
  measurement: 2.73
- structureSmilesString: "COCCOCCOCCOCCOCOc1c(C(C)C)cccc1C(C)C"
  measurementUnits: "mg/mL"
  qualifyingSign: "="
  measurement: 0.57
- structureSmilesString: "COCCOCCOCCOCCOCCOCCOCCOCCOCCOCCOC(=O)Oc1c(C(C)C)cccc1C(C)C"
  measurementUnits: "mg/mL"
  qualifyingSign: ">"
  measurement: 315
- structureSmilesString: "COCCOCCOCCOCCOCCOCCOCC(=O)Oc1c(C(C)C)cccc1C(C)C"
  measurementUnits: "mg/mL"
  qualifyingSign: "="
  measurement: 2.02

###

procedureDetails: Solubility of the compound in pH 7.4 PBS buffer containing 60% methanol by ultraviolet spectroscopic method
Type: physicochemical
Measured solubility values are reported for all entries that follow.

- structureSmilesString: "COCCOCCOC(=O)Oc1c(C(C)C)cccc1C(C)C"
  solubility: "70 µg/mL"
- structureSmilesString: "COCCOCCOCOc1c(C(C)C)cccc1C(C)C"
  solubility: "200 µg/mL"
- structureSmilesString: "COCCOCCOCC(=O)Oc1c(C(C)C)cccc1C(C)C"
  solubility: "420 µg/mL"

###

procedureDetails: Solubility of the compound in pH 7.4 PBS buffer by ultraviolet spectroscopic method
Assay type: physicochemical
Examples of compounds with documented solubility follow.

- structureSmilesString: "COCCOCCOCCOCCOCCOCCOC(=O)Oc1c(C(C)C)cccc1C(C)C"
  qualifyingSign: "="
  solubility [mg/mL]: 0.83
- structureSmilesString: "COCCOCCOCCOCCOCCOCCOCOc1c(C(C)C)cccc1C(C)C"
  qualifyingSign: "="
  solubility [mg/mL]: 1.25
- structureSmilesString: "COCCOCCOCCOCCOCCOCCOCCOCCOCCOCCOCC(=O)Oc1c(C(C)C)cccc1C(C)C"
  qualifyingSign: ">"
  solubility [mg/mL]: 371
- structureSmilesString: "COCCOCCOCCOC(=O)Oc1c(C(C)C)cccc1C(C)C"
  qualifyingSign: "="
  solubility [mg/mL]: 0.19
- structureSmilesString: "COCCOCCOCCOCOc1c(C(C)C)cccc1C(C)C"
  qualifyingSign: "="
  solubility [mg/mL]: 0.28
